Taken from ChEMBL document CHEMBL3108770.

tgt: UniProt:P09917
Sequence (P09917 whole entry): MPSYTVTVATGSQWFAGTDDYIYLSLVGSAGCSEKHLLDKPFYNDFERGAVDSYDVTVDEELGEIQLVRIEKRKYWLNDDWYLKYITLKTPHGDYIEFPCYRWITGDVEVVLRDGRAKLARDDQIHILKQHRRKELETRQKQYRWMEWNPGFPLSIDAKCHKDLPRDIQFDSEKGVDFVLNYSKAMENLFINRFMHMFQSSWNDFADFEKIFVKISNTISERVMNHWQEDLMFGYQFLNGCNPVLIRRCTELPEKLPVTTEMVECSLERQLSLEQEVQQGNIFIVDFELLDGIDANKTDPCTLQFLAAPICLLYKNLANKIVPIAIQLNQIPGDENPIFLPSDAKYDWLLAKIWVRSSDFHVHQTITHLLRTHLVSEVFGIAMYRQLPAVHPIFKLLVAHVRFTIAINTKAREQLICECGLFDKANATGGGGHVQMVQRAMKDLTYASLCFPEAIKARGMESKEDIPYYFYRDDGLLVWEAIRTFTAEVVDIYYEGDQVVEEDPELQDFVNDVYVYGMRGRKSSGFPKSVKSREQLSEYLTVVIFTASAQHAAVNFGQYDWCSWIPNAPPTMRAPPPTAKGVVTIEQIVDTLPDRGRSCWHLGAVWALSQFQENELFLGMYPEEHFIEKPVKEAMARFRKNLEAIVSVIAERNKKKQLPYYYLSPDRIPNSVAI
test_description: Inhibition of 5-LO in human PMNL using arachidonic acid as substrate preincubated for 15 mins
Provide the reported IC50 of each item.

Prompt: Look up IC50 of COC1=CC(=O)C(O)=C(Cc2ccc3ccccc3c2)C1=O and report it.
Completion: > 10 µM

Prompt: Look up IC50 of O=C1C=C(O)C(=O)C(CC2CCCCC2)=C1O and report it.
Completion: > 10 µM

Prompt: Look up IC50 of COC1=CC(=O)C(O)=C(Cc2ccccc2)C1=O and report it.
Completion: > 10 µM

* * *

Provide the reported IC50 of each item.
tgt: Polyunsaturated fatty acid 5-lipoxygenase (Homo sapiens)
test_description: Inhibition of 5-LO in human PMNL using arachidonic acid as substrate preincubated for 15 mins

Prompt: Look up IC50 of Oc1ccc(-c2csc3ccccc23)c(O)c1 and report it.
Completion: > 10 µM

Prompt: Look up IC50 of O=C1C=C(Cc2ccc3cc(C(=O)O)ccc3c2)C(=O)C=C1O and report it.
Completion: > 10 µM

Prompt: Look up IC50 of O=[N+]([O-])c1cccc(-c2ccc(O)cc2O)c1 and report it.
Completion: > 10 µM
